Property: inhibition of aggregation; scope: individual compounds
- protocol: reduction of polyQ htt aggregates in cells – imaging, exon1htt(103Q)mCFP cells, high-content imaging, primary screen (AID 483);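 further: compound exposure lasted 3 days before fixation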
- setupConditions: exon1htt(103Q)mCFP cell line, aggregate imaging, at 2 µM; stronger effect = higher value
Active and inactive are the calls of the source.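 How the source made its calls: active means visual image review flags a hit and inhibition of aggregation exceeds 20%; inconclusive means visual hit but inhibition at or below 20%; inactive means no hit on visual image review.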

Consider the reported inhibition of aggregation for these compounds:
> print(dat)
                                   compound                  valuekind  experimentalvalue
1  Cc1ccc(-n2ncc3c(=O)n(CC(=O)NC4CCCCC4)cnc32)cc1C  inhibition of aggregation    4.3% (inactive)
2  O=C(Cn1c(=O)n(Cc2ccc3c(c2)OCO3)c(=O)c2ccccc21)N1CCCc2ccccc21  inhibition of aggregation  -11.1% (inactive)
3       CCN(C(=O)c1cccs1)c1nnc(-c2ccncc2)s1  inhibition of aggregation  -14.4% (inactive)

Q) Using known records, supply inhibition of aggregation for Cn1c(=O)c2c(nc(CN3CCN(c4ccccc4F)CC3)n2CCN2CCOCC2)n(C)c1=O
A) 13.3% (inactive)

Q) Using known records, supply inhibition of aggregation for COC(=O)C1=C(N)OC2=C(C(=O)CCC2)C1c1cccs1 (stereo not given)
A) 27.3% (inactive)
